- protocol: Rat pharmacokinetics, oral administration
- Assay type: in vivo
- assay context: rat, in vivo, po, 20 mg/kg, Rat 3
measured endpoint: Cmax (µM)
Answer format: numeric, µM implied, no suffix.

Qu. Can you look up the measured Cmax of O=C(Nc1ccc2sc(-c3ccc(F)c(F)c3)nc2c1)N1CC[C@H](F)C1 for me?
Ans. 7.31

* * *

- protocol: Distribution between mouse plasma and brain (brain penetration, ip)
- Assay type: in vivo
- assay context: mouse, in vivo, 5 mg/kg, Table 8; groups of 3 mice (compound 3: ± SEM of 6 mice); read-out: Average [compound] brain
measured endpoint: concentration at 1 h (µM)
Field format: number, assumed µM, no unit text.

Qu. # input compound: O=C(Nc1ccc2sc(-c3ccc(F)c(F)c3)nc2c1)N1CC[C@@H](F)C1 ; wanted: its concentration at 1 h
Ans. 6.35

Just for reference, patent US10399966B2 is where these values come from.
